Reference source for all entries: patent US20160053277A1

# Test Details: 14C assay with IPTG-induced recombinant E. coli cells: 14CO2 captured from [14C]-carboxyl-labeled dicamba
# Cond: induced recombinant E. coli cells, [14C]-carboxyl-labeled dicamba, 14CO2 capture

>  <Molecule>
103 (protein, Plasmodium yoelii yoelii) MAMEIPTEEIKFLKKEDVQNIDLNGMSKKERYEIWRRIPKVELHCHLDLTFSAEFFLKWARKYNLQPNMSDDEILDHYLFTKEGKSLAEFIRKAISVSDLYRDYDFIEDLAKWAVIEKYKEGVVLMEFRYSPTFVSSSYGLDVELIHKAFIKGIKNATELLNNKIHVALICISDTGHAAASIKHSGDFAIKHKHDFVGFDHGGREIDLKDHKDVYHSVRDHGLHLTVHAGEDATLPNLNTLYTAINILNVERIGHGIRVSESDELIELVKKKDILLEVCPISNLLLNNVKSMDTHPIRKLYDAGVKVSVNSDDPGMFLSNINDNYEKLYIHLNFTLEEFMIMNNWAFEKSFVSDDVKSELKALYF

>  <Dicamba Decarboxylase Activity>
No

$$$$
>  <Molecule>
61 (protein, listed as Gordonia amarae) MATGAGSGVPSPADRVIVRSPGVIDVHAHAVLPMSLGCAGAAGPEIGYREDGSPFFRVGEYVLNGVRYEGSAFMDPEVRVAAMDAAGIGLQMISPNPITYFTRLDARSATDYARAHNDAIAEAAGRHPGRLVGAAQLPMQDVPAAIAELERSVRELGLVAAYIDTDIGDRTLDAPELDDFYSAAVELDVPVFIHPSPVGQEGPPDDTRLRRFDLDLLLGFSYDETLAVAALVFGGVLERHPALDVCLSHGGGTLAFVAGRFARAVAKPRAWVPEFLVENGIESYLRRLWLDTHVHSAGSLRLLIDTVGTDRLVFGTNFAGWDADGATEVDALGDLRETTTANAAHLLRLGRA

>  <Dicamba Decarboxylase Activity>
No

$$$$
>  <Molecule>
83 (protein, listed as Mycobacterium rhodesiae) MALIALEEHYAWSPVSAGNVVGSWLETHNVTAYQRLYDRGPLRLEQMDAAGIDFQILSLFDPGVQDDDDTARAVENARRANDDLAETVRAAPDRFGGFATLAPQDPDAAAAELERAVGELGLVGGLINGHTHGRYLDDPAYLGLFECAQRLGVPIYLHPTTPHPAVMDAWFAPYVKDGLHLASWGFAAETGTHALRLIYSGLFDTFPRLQMILGHLGEMLPYAAYRIDRYYGLGGGDDGGRLARLPSEYLRDNFHVTTSGNFNPVAFACALDVMGPDRLMFSVDYPMDDNVTGAEFLRNLEVDDDVRRKVAGENALQLFGDKIPRR

>  <Dicamba Decarboxylase Activity>
Low

$$$$
>  <Molecule>
2 (protein, listed as Serratia sp.) MAKIICLEEHTLDKALVMASMPAALEQAPFLSDWGKTVTDGNLPDRSRPQIEKNDLINIKGADIGRGRLDDMDVAGITMQVLSVGGFPHLISAAEGVDLNRAANDRLADAVNAHPDRFAAFATLPWAQPDSAEKELERAVKELGFKGALLNGRPSTHFLDHPDYDGLLARFNALGVPLYLHPGLPVRSVQQAYYGGFSDEVTARLSMFGWGWHHEAGIHLLRLILSGAFDKYPNLQVISGHWGEMLPFWLQRLDDSLPQAATGLRRTIAQTFKEQVYVTPSGMLTLPHFQFIYALLGAERIIFSVDYPYQTLDGVKAFIQSLPVPEEAKEAIAFRNAERLLGLTS

>  <Dicamba Decarboxylase Activity>
High

$$$$
